B1: ZNF24 (parent)
chain: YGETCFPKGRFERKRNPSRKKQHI

# Variants of: B1
# method.notes: protein stability index of a GFP-peptide fusion (GPS, HEK-293T) (PSI 1-6); higher = more stable;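 also: lentivirally expressed fusions sorted by FACS into six bins by GFP to DsRed ratio, PSI derived from sequencing read proportions per bin multiplied by bin number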
# condition: c terminus: a fixed tail appended
Here the recorded protein stability index is given for each entry.

biopolymer.sequence: WGETCFPKGRFERKRNPSRKKQHI
protein stability index: 2.6
--
biopolymer.sequence: NGETCFPKGRFERKRNPSRKKQHI
protein stability index: 4.4
--
biopolymer.sequence: YGETCFPKGRFERKRNPSRKKQTI
protein stability index: 2.43
--
biopolymer.sequence: YGETCFPKGRWERKRNPSRKKQHI
protein stability index: 2.2
--
biopolymer.sequence: YGETCFPKGRFESKRNPSRKKQHI
protein stability index: 3.14
--
biopolymer.sequence: YGETCFPKGRFERKRNPDRKKQHI
protein stability index: 3.07
--
biopolymer.sequence: PGETCFPKGRFERKRNPSRKKQHI
protein stability index: 4.1
--
biopolymer.sequence: YGETCFPKGFFERKRNPSRKKQHI
protein stability index: 2.83
--
biopolymer.sequence: YGETCDPKGRFERKRNPSRKKQHI
protein stability index: 4.46
--
biopolymer.sequence: YGETCFPKGRFERKRNPSRKMQHI
protein stability index: 2.08
--
biopolymer.sequence: YGETCFPKGRFETKRNPSRKKQHI
protein stability index: 2.3
--
biopolymer.sequence: YGETCFPKGRFYRKRNPSRKKQHI
protein stability index: 2.46
--
biopolymer.sequence: YGETCFPKGRFERQRNPSRKKQHI
protein stability index: 3.1
--
biopolymer.sequence: EGETCFPKGRFERKRNPSRKKQHI
protein stability index: 4.46
--
biopolymer.sequence: YGETCFPKGRFERKRGPSRKKQHI
protein stability index: 2.5
